- PROCEDURE_TEXT: yeast display, Sf9 membrane polyspecificity reagent, FACS + sequencing; frameworks hold sequencing errors
READOUT_LABEL: polyreactivity (PSR sort gate)

Use the examples below as a reference point.
INSERT INTO measurements (seq_text, recorded_result) VALUES
  ('QVQLVESGGGLVQAGGSLRLSCAASGFTFNDYAMGWYRQAPGKERELVAAIDWSGGRTYYADSVKGRFTISRDNAKNTVYVQMNSLKPEDTAVYYCAAVLYSRLYWYRLDYWGQGTQVTVSS', 'low polyreactivity'),
  ('QVQLVESGGGLVQAVGSLRLSCAASGRTIAGYTMGWYRQARGQERELVAAISGRGGSTYYADSVKGRYTISRDNAKNTVYLQMNSLKPEDTAVYYCAAYTQGYWGRGRYGYCGQGTQVTVSS', 'high polyreactivity'),
  ('QVQLQESGGVLVQAGGSLRLSCAARGYISLAQTIGWYRQAPGKEREFVASIALGSSTYYTDSEKGSFTISRDNAKTTVYLQMNSLKPEDTAVYYCAARVGASYAHDYWGQGTEVTVSS', 'low polyreactivity'),
  ('QVQLVESGGGLVQAGGSLRLICAASGSIFYGYAMGWYRPAPGKERELVAAISYSGDRTYYADSVKGRFTISRDNAKNSVYLQMNSLKPEDTAVYYCAAQRRYGDDYWGQGTQVTVSS', 'high polyreactivity');

The measured polyreactivity (PSR sort gate) associated with QVQLVESGGGLVQAGGSLRLSCAASGSTFGDNAMGWYRQAPGKERELVAAITSVGTTYYADSVKGRFTISRDNAKNTVYLQMNSLKPEDTAVYYCNAEYVWDDYFEFDYWGQGTQVTVSS reads low polyreactivity

The measured polyreactivity (PSR sort gate) associated with QVQLVESGGGLVQAGGSLRLSCAASGRIYTRYMGWYRQAPGKEREMVATINWSGGSTYYADSVKGRFTISRDNAKNTVYLQMNSLKPEDTAVYYCNARNVDFYYVQYNGAKIFDYWGQGTQVTVSS reads low polyreactivity

The measured polyreactivity (PSR sort gate) associated with QVQLVESGGGLGQAGGSLRLSCAASGFTFRKYVMGWYRQAPGKERALVAAITSGGSTNYADSVKGRFTISRDNAKNTVYLQMNSVIPEDTAVYYCATVPGARVHYPTGDYWGQGTQVTVSS reads high polyreactivity

The measured polyreactivity (PSR sort gate) associated with QVQLVESGGGLVQAGGSLRLSCAASGSTFWFNDMGWYRQAPGKEREFVAAISSIGGSTYYADSVKGRFTISRDNAKNTVYLQMNSLKPEDTAVYYCAADRLQYYNPYDYWGQGTQVTVSS reads low polyreactivity

The measured polyreactivity (PSR sort gate) associated with QVQLVESGGGLVQAGGSLRLSCAASGYIFTGNAMGWYRQAPGKERELVAAIDSGGSTYADSVKGRFTISRDNAKNTVYLQMNSLKPEDTAVYYCNADQNEDTYLSYYGDYDYWGQGTQVTVTS reads low polyreactivity

The measured polyreactivity (PSR sort gate) associated with QVQLVESGGGLVQAGGSLRLICAASGITFRRYTMGWYREAPGKERELVATISLSDGNTYYADSVKGRFTISRDNAKYTLYLQMNSLKPEDTAVYYCNARHTWHQTYDYWGQGTIVTVSS reads low polyreactivity

The measured polyreactivity (PSR sort gate) associated with QVQLQESGGGLVQAGGSLRLSCAASGYNSFSGYMGRYRQAPGKEREFVDSITPGRSTYYADSVKGRFTISRDNAEITVYLQMNSLKPEDTGVYYCAADDSRTEQHDYWGQGTQVTVSS reads high polyreactivity
